Biological target: T1, HLA-A*02:01 (peptide-receptive MHC class I monomer after UV cleavage of the UV-sensitive ligand) (human)
T1 construct: MHC monomers loaded by UV-ligand exchange and captured on streptavidin plates
Assay: UV ligand-exchange ELISA; exchange yield grade (+ >=10%, ++ >=20%, +++ >=50%, ++++ >=75%)
reported.property: peptide exchange yield

GLIELVDQL [GLIELVDQL (SEQ ID NO: 190)] | 50 to 75%
FLREYFERL [FLREYFERL (SEQ ID NO: 53)] | ≥ 75%
IIAEYLSYV [IIAEYLSYV (SEQ ID NO: 228)] | 20 to 50%
VLTNVGAAL [VLTNVGAAL (SEQ ID NO: 250)] | 50 to 75%
GLLHEVVSL [GLLHEVVSL (SEQ ID NO: 145)] | 50 to 75%

Query: What value of measured peptide exchange yield is listed for GLAPAEVVVATVA [GLAPAEVVVATVA (SEQ ID NO: 85)] ?
Response: 50 to 75%

Query: Similarly, QLLPQGIVPAL [QLLPQGIVPAL (SEQ ID NO: 39)] ?
Response: 50 to 75%

Query: Similarly, FLLDTISGL [FLLDTISGL (SEQ ID NO: 209)] ?
Response: 50 to 75%

Data provenance is patent US20170296640A1.
